Parameter maximal % inhibition of GIP-induced cAMP in BHK cells expressing hGIPR: see the listing below.
Biological target: T1, human GIP receptor (human, UniProt P48546 22-466)
T1 sequence: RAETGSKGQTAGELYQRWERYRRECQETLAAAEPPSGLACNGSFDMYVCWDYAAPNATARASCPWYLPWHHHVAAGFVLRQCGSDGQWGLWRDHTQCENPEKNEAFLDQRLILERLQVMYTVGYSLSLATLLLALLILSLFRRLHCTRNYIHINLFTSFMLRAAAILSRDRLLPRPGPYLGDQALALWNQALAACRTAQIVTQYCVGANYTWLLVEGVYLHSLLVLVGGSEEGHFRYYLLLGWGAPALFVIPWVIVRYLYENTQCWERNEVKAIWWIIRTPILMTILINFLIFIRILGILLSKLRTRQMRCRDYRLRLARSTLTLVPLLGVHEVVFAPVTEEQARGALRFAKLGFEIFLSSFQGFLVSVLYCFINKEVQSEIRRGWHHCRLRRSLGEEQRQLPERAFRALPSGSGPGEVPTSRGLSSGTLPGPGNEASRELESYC
Assay: cell-based or functional assay
*1 amine or outer side, *2 acyl side, *3 side chain or, on linkers, in order; H or OH if unused. Where no end group is shown, it is not given here. Side-chain parts run from the residue outwards. The star is where a group is joined. C18 diacid = O=C(O)CCCCCCCCCCCCCCCCC(=O)*; γGlu = O=C(O)[C@H](CCC(=O)[*:2])N[*:1]; Palmitoyl = CCCCCCCCCCCCCCCC(=O)*; AEEA = NCCOCCOCC(=O)O
readout-type: maximal % inhibition of GIP-induced cAMP in BHK cells expressing hGIPR (%)

binder	unit-spec	measured
FISDYSIALDKIRQQEFVNWLLAQKG [[L14, R18, E21] hGIP(6-31)]	%	83
Ac-TFISDK([γGlu-Palmitoyl])SIALDKIRQQEFVNWLLAQKG [[Nα-Ac, L14, R18, E21] hGIP(5-31)-K10 (γE-C16)]	%	100
Ac-TFISDYK([AEEA-AEEA-γGlu-C18 diacid])IALDKIRQQEFVNWLLAQKG [[Nα-Ac, L14, R18, E21] hGIP(5-31)-K11(OEG2-γE-C18-OH)]	%	100
Ac-TFISDYK([AEEA-AEEA-C18 diacid])IALDKIRQQEFVNWLLAQKG [[Nα-Ac, L14, R18, E21] hGIP(5-31)-K11(OEG2-C18-OH)]	%	100
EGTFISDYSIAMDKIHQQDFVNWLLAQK-NH2 [hGIP(3-30) amide]	%	81
Ac-TFISDYK([γGlu-Palmitoyl])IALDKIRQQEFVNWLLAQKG [[Nα-Ac, L14, R18, E21] hGIP(5-31)-K11 (γE-C16)]	%	100
TFISDYSIALDKIRQQEFVNWLLAQKG [[L14, R18, E21] hGIP(5-31)]	%	81
Ac-TFISDYK(C18 diacid)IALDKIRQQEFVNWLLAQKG [[Nα-Ac, L14, R18, E21] hGIP(5-31)-K11 (-C18-OH)]	%	100
